target: T1, Delta mMor1 (Mus musculus, UniProt P42866, INS358LEVLFQGP/INS51ENLYFQ); assay: Flow cytometry binding of VHHs to Delta mMor1/Sf9 cells with or without Mor1 ligand; conditions: periplasmic extracts; no ligand, 20 μM Dmt1-Dalda or 20 μM naloxone; mock GPCR Sf9 as control
T1 construct: expressed in transfected cells; host or cells: Sf9 insect cells, baculovirus-infected (BestBac)
T1 sequence (P42866 with tags, fused parts or gaps INS51ENLYFQ/INS358LEVLFQGP): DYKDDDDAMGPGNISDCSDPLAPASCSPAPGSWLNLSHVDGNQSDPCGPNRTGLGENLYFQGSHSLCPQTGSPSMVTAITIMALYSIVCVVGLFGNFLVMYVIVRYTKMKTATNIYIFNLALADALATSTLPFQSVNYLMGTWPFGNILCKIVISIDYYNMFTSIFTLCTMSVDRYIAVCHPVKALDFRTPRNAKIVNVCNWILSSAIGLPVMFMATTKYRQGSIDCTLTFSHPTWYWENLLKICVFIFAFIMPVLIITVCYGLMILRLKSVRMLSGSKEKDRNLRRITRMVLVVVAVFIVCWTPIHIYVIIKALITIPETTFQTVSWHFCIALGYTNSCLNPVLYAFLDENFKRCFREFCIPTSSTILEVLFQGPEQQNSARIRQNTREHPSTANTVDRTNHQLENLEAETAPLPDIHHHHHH
result_type: Flow cytometry binding profile on Delta mMor1/Sf9 cells

molecule: XA8641: Mor1-specific VHH, SEQ ID NO: 3, Profile I (protein, listed as Lama glama) VHH: QVQLVESGGGLVRPGGSLRLSCVDSGRTSYPMGWFRRAPGKEREFVASITWSGIDPTYADSVADRFTISRDVANNTLYLQMNSLKHEDTAVYYCAARAPVGQSSSPYDYDYWGQGTQVTVSSAAAHHHHHHGAAEQKLISEEDLNGAA
observed_result: Profile I

molecule: XA8643: Mor1-specific VHH, SEQ ID NO: 4, Profile I (protein, listed as Lama glama) VHH: QVQLVESGGGLVRPGGSLRLSCVDSERTSYPMGWFRRAPGKEREFVASITWSGIDPTYADSVADRFTISRDVANNTLYLQMNSLKHEDTAVYYCAARAPVGQSSSPYDYDYWGQGTQVTVSSAAAHHHHHHGAAEQKLISEEDLNGAA
observed_result: Profile I
